The measurements presented in this section are drawn from patent EP0086590A1.

- method: Mouse urinary recovery of antibacterial agent
- Assay type: in vivo
- assay setup: urine, sc, 10 mg/kg s/c, parent antibacterial agent administered alone
In this section we review reported dose excreted values for a set of molecules.
Could you give me the number in %? Just the number is fine.

| molecule | value kind | unit of measure | reading |
| --- | --- | --- | --- |
| CC(=O)NC=CSC1=C(C(=O)O)N2C(=O)C(C(C)OS(=O)(=O)O)C2C1 (centres unmarked) | dose excreted | % | 1.5 |

IN: Can you share its dose excreted? I mean this molecule: CC(=O)NC=CSC1=C(C(=O)O)N2C(=O)C(C(C)O)C2C1 (centres unmarked)
OUT: 0.3
